Data origin: ChEMBL document CHEMBL2169831

For each entry below, report its pKd value.
test: Binding affinity to Xenopus laevis oocyte CNGA1/CNGB1 assessed as inhibition of 2 mM cGMP-induced currents at -50 mV potential at 5 uM by patch-clamp method; conditions: read-out: Kd(app)
One number for each entry, as −log10 of the molar value.

Check out these entries, answers already filled in.
structure smiles string	pKd
CCCCNc1ccc(C(=O)NCCN(C)C)cc1	4.54
CCCCCCCCNc1ccc(C(=S)NCCN(C)C)cc1	5.74
CCCCNc1ccc(C(=S)NCCN(C)C)cc1	5.41

query: # input compound: CCCCCCCCNc1ccc(C(=O)OCCN(C)C)cc1 ; wanted: its pKd
result: 5.62

* * *

assay: Drug degradation in 0.1 M phosphate buffer at pH 7.4 assessed as human butyrylcholinestase-mediated compound hydrolysis rate at 50 uM during first 1 min by spectrophotometric analysis; conditions: pH 7.4, 1 min
result type: Drug degradation (nmol/min/mg)
Give bare numbers, in nmol/min/mg.

structure smiles string	result type	test result
CCCCNc1ccc(C(=O)OCCN(C)C)cc1	Drug degradation	132
CCCCCCCCNc1ccc(C(=O)NCCN(C)C)cc1	Drug degradation	1.2
CCCCNc1ccc(C(=O)NCCN(C)C)cc1	Drug degradation	8.4

Next compound, please.
query: What does the record list as Drug degradation for CCCCCCCCNc1ccc(C(=O)OCCN(C)C)cc1 ?
result: 213

* * *

Kindly supply the reported pKd values for the records listed here.
assay: Binding affinity to Xenopus laevis oocyte CNGA1/CNGB1 assessed as inhibition of 2 mM cGMP-induced currents at +50 mV potential at 5 uM by patch-clamp method; settings: read-out: Kd(app)
Numbers only, as −log10 of the molar value.

structure smiles string	pKd
CCCCCCCCNc1ccc(C(=S)NCCN(C)C)cc1	6.15
CCCCNc1ccc(C(=S)NCCN(C)C)cc1	6.22

Batch lookup, pKd per entry.
1. CCCCCCCCNc1ccc(C(=O)OCCN(C)C)cc1
2. CCCCNc1ccc(C(=O)NCCN(C)C)cc1

result:
1: 6.00; 2: 5.36
